Where do these numbers come from? They come from PubChem BioAssay AID248.

- Test system: L1210 leukemia ip in BDF1 mice, survival T/C
- PROCEDURE SUMMARY: NCI In Vivo Anticancer Drug Screen. Data for tumor model L1210 Leukemia (intraperitoneal) in B6D2F1 (BDF1) mice
- CONDITIONS USED: endpoint: mean survival time; dose: 100.0 mg/kg/injection; schedule: Q01DX009 (ip); vehicle: Klucel (hydroxypropylcellulose) (HPC); higher = longer survival
Toxic doses and inconclusive results are not listed.
The entries below are paired with their reported T/C.
ENDPOINT LABEL: T/C

[[record]]
chemical_smiles = "Cc1ccc(Cl)c(NC(=O)c2ccc(C(=O)Nc3cc(C)ccc3Cl)cc2)c1"
endpoint_label = "T/C"
measured = "87 % of control"

[[record]]
chemical_smiles = "CCCCC(=O)c1ccc(F)cc1"
endpoint_label = "T/C"
measured = "96 % of control"

[[record]]
chemical_smiles = "NC(=O)NNC(=O)c1ccccc1"
endpoint_label = "T/C"
measured = "100 % of control"

[[record]]
chemical_smiles = "COc1ccc(NC(=O)OC/C=C/c2ccccc2)c(OC)c1"
endpoint_label = "T/C"
measured = "90 % of control"

[[record]]
chemical_smiles = "Cc1cc(C(=O)O)c(C)n1-c1ccccc1C(=O)O"
endpoint_label = "T/C"
measured = "89 % of control"

[[record]]
chemical_smiles = "CCS(=O)(=O)/C=C/c1cccs1"
endpoint_label = "T/C"
measured = "104 % of control"

[[record]]
chemical_smiles = "CCCCCCCCCCCCCCCCCC(=O)N/N=C/c1ccc(N(C)C)cc1"
endpoint_label = "T/C"
measured = "93 % of control"

[[record]]
chemical_smiles = "O=C(O)c1c(O)c(-c2ccccc2)nc2ccccc12"
endpoint_label = "T/C"
measured = "100 % of control"

[[record]]
chemical_smiles = "[O-][n+]1ccccc1-c1ccccc1"
endpoint_label = "T/C"
measured = "101 % of control"

[[record]]
chemical_smiles = "CCCCCCCCCCCCCCCCCC(=O)N/N=C/c1cccc([N+](=O)[O-])c1"
endpoint_label = "T/C"
measured = "94 % of control"

[[record]]
chemical_smiles = "O=C(Cl)OCC(Cl)(Cl)Cl"
endpoint_label = "T/C"
measured = "100 % of control"

[[record]]
chemical_smiles = "Cc1ccc(C(=O)CN(Cc2ccccc2)Cc2ccccc2)cc1"
endpoint_label = "T/C"
measured = "103 % of control"


----------
- Tested on: L1210 leukemia ip in BDF1 mice, survival T/C
- PROCEDURE SUMMARY: NCI In Vivo Anticancer Drug Screen. Data for tumor model L1210 Leukemia (intraperitoneal) in B6D2F1 (BDF1) mice
- CONDITIONS USED: endpoint: mean survival time; dose: 400.0 mg/kg/injection; schedule: Q04DX003 (ip); vehicle: saline; higher = longer survival
Toxic doses and inconclusive results are not listed.
Reported T/C is given for each of the following molecules.
ENDPOINT LABEL: T/C

[[record]]
molecule = "C=CC1(C)CO1 (stereo not drawn)"
measured = "96 % of control"

[[record]]
molecule = "O=C(Nc1ccc([N+](=O)[O-])cc1Cl)N(CC(O)c1ccccc1)C1CCCCC1 (stereo not drawn)"
measured = "100 % of control"

[[record]]
molecule = "OC(c1ccccc1)c1ccccc1"
measured = "97 % of control"

[[record]]
molecule = "O=C1CC(c2ccccc2Cl)N(S(=O)(=O)c2ccccc2)N1 (stereo not drawn)"
measured = "102 % of control"

[[record]]
molecule = "CC1(C)CCSC(/C=C/c2ccccc2)=N1"
measured = "103 % of control"

[[record]]
molecule = "CN(C)[C@@H]1C(=O)C(C(=O)NCNCCCC(=O)O)=C(O)[C@@]2(O)C(=O)C3=C(O)c4c(O)cccc4[C@@](C)(O)[C@H]3C[C@@H]12"
measured = "96 % of control"

[[record]]
molecule = "OCC(O)C(O)C(O)/C=N\\O (stereo not drawn)"
measured = "100 % of control"

[[record]]
molecule = "CCCN=C(N)C(N)=NCCC"
measured = "91 % of control"

[[record]]
molecule = "COc1cc2c(cc1OC)CC(=O)NC2"
measured = "97 % of control"

[[record]]
molecule = "CC1=CC(=O)OC(C)(C)C1"
measured = "99 % of control"

[[record]]
molecule = "COC(=O)C(C)O (stereo not drawn)"
measured = "107 % of control"

[[record]]
molecule = "COC(=N)c1ccc2c(c1)OCO2"
measured = "100 % of control"

[[record]]
molecule = "O=C1CCCN1C1=CC2=C(CCc3ccccc32)S(=O)(=O)O1"
measured = "108 % of control"


----------
- Test system: L1210 leukemia ip in BDF1 mice, survival T/C
- PROCEDURE SUMMARY: NCI In Vivo Anticancer Drug Screen. Data for tumor model L1210 Leukemia (intraperitoneal) in B6D2F1 (BDF1) mice
- CONDITIONS USED: endpoint: mean survival time; dose: 400.0 mg/kg/injection; schedule: Q04DX003 (ip); vehicle: other; higher = longer survival
Inconclusive results and toxic doses are left out.
# T/C values compiled below
ENDPOINT LABEL: T/C

[[record]]
chemical_smiles = "c1c[nH]c(Cc2ccc3ccccc3c2)c1"
measured = "102 % of control"

[[record]]
chemical_smiles = "C/C(CC(O)(C(F)(F)F)C(F)(F)F)=N\\Nc1ccccc1"
measured = "106 % of control"

[[record]]
chemical_smiles = "CNS(=O)(=O)c1ccc(N)cc1"
measured = "108 % of control"

[[record]]
chemical_smiles = "CC(C)(C)c1ccccc1C(N)=O"
measured = "91 % of control"


----------
Examples of compounds with documented T/C follow.
- Tested on: L1210 leukemia ip in BDF1 mice, survival T/C
- PROCEDURE SUMMARY: NCI In Vivo Anticancer Drug Screen. Data for tumor model L1210 Leukemia (intraperitoneal) in B6D2F1 (BDF1) mice
- CONDITIONS USED: endpoint: mean survival time; dose: 400.0 mg/kg/injection; schedule: Q01DX009 (ip); vehicle: saline; higher = longer survival
Inconclusive results and toxic doses are left out.
ENDPOINT LABEL: T/C

[[record]]
compound = "O=C(Cc1ccc([N+](=O)[O-])cc1)c1ccccc1"
tgt = "L1210 leukemia ip in BDF1 mice, survival T/C"
endpoint_label = "T/C"
measured = "97 % of control"

[[record]]
compound = "COc1ccc([N+](=O)[O-])c(C=O)c1"
tgt = "L1210 leukemia ip in BDF1 mice, survival T/C"
endpoint_label = "T/C"
measured = "101 % of control"

[[record]]
compound = "OC1CCSc2ccc3ccccc3c21 (configuration not stated)"
tgt = "L1210 leukemia ip in BDF1 mice, survival T/C"
endpoint_label = "T/C"
measured = "104 % of control"

[[record]]
compound = "O=C1NC(=O)C(CO)(CO)N1"
tgt = "L1210 leukemia ip in BDF1 mice, survival T/C"
endpoint_label = "T/C"
measured = "113 % of control"

[[record]]
compound = "CNc1nc2ncn(C)c2c(=O)[nH]1"
tgt = "L1210 leukemia ip in BDF1 mice, survival T/C"
endpoint_label = "T/C"
measured = "98 % of control"

[[record]]
compound = "O=S(O)c1ccc(Cl)cc1"
tgt = "L1210 leukemia ip in BDF1 mice, survival T/C"
endpoint_label = "T/C"
measured = "98 % of control"

[[record]]
compound = "Cc1cccc(C)c1/C=C/S(=O)(=O)c1ccccc1"
tgt = "L1210 leukemia ip in BDF1 mice, survival T/C"
endpoint_label = "T/C"
measured = "94 % of control"


----------
T/C: recorded values
- System: L1210 leukemia ip in BDF1 mice, survival T/C
- PROCEDURE SUMMARY: NCI In Vivo Anticancer Drug Screen. Data for tumor model L1210 Leukemia (intraperitoneal) in B6D2F1 (BDF1) mice
- CONDITIONS USED: endpoint: mean survival time; dose: 200.0 mg/kg/injection; schedule: Q04DX003 (ip); vehicle: saline with Tween-80; higher = longer survival
Inconclusive results and toxic doses are left out.
ENDPOINT LABEL: T/C

[[record]]
chemical_smiles = "CCOC(=O)/C=C/c1ccco1"
tgt = "L1210 leukemia ip in BDF1 mice, survival T/C"
measured = "95 % of control"

[[record]]
chemical_smiles = "c1ccc(Nc2n[n+](-c3ccccc3)no2)cc1"
tgt = "L1210 leukemia ip in BDF1 mice, survival T/C"
measured = "100 % of control"

[[record]]
chemical_smiles = "O=C(Nc1cc(NC(=O)Oc2ccccc2)cc([N+](=O)[O-])c1)Oc1ccccc1"
tgt = "L1210 leukemia ip in BDF1 mice, survival T/C"
measured = "103 % of control"

[[record]]
chemical_smiles = "O=C(O)c1ccnc(Cl)c1"
tgt = "L1210 leukemia ip in BDF1 mice, survival T/C"
measured = "102 % of control"

[[record]]
chemical_smiles = "COc1ccc2nc(N)sc2c1"
tgt = "L1210 leukemia ip in BDF1 mice, survival T/C"
measured = "93 % of control"

